Where do the numbers come from? From PubChem BioAssay (NCI).

# System: NCI-H460 lung
# procedure.summary: NCI-60 one-dose screen, 48 h
# measurement.setup: 10 µM unless noted
This is part of a sample that, as a whole, favours compounds with a hit. Of some 83,000 tested, about 20% had one in any assay. Calls of active or inactive are those of the source. How the source made its calls: active means growth percent below 10; inactive means the rest.
Possible outcomes: active, inactive

• CCN1CCN(Cc2ccc(NC(=O)Nc3ccc(-n4ccc5c(NC(=O)c6ccccc6)nccc54)cc3)cc2C(F)(F)F)CC1 = active
• CS(=O)(=O)c1ccc(C(=O)N/N=C/c2cccc3ccccc23)cc1 = inactive
• Cc1ccc(Nc2cc(Cl)c([N+](=O)[O-])cc2[N+](=O)[O-])cc1 = inactive
• COc1ccccc1CNCCCN1C(=O)c2ccc3c4c(ccc(c24)C1=O)C(=O)N(CCCNCCCN)C3=O = active
• O=C(/C=C/c1ccccc1Br)c1cccc(OCCCCOc2cccc(C(=O)/C=C/c3ccccc3Br)c2)c1 = inactive
• O=S(=O)(Cc1ccc(Cl)cc1Cl)c1ccc(Cl)cc1 = inactive
• CN(C)c1ccc(C2(Cl)c3ccccc3N(C)c3ccccc32)cc1 = inactive
• Cc1ccc(C(=O)CC(=O)C(F)(F)C(F)(F)C(F)(F)F)s1 = inactive
• COc1cc(CN(c2ccc(C)cc2)C2OC(=O)c3ccccc32)cc(OC)c1OC (centres undefined) = inactive
